Target: T1, Human cIAP-1 BIR3-only (residues 253-363) (human, UniProt Q13490 253-363)
T1 construct: range 253-363; Cloned into pHis-TEV vector, produced and purified as for XIAP BIR3; also called cIAP-1 BIR3 protein; not shown: tag from pHis-TEV vector
T1 sequence (Q13490 253-363): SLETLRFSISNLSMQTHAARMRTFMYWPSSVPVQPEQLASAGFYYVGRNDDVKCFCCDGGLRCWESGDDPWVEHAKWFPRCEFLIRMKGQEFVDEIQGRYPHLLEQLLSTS
Test: fluorescence polarization, tracer binding to cIAP-1 BIR3
pKd: −log10 of the molar value. Square brackets hold non-standard residues; d marks the D form. Ends that are not written are not given here. * marks the point of attachment. 5FAM = O=C1OC2(c3ccc(O)cc3Oc3cc(O)ccc32)c2ccc(C(=O)*)cc21; Abu = CC[C@H](N)C(=O)O

>  <binder>
[Abu]RPFK(5FAM) (Mutated Smac N-terminal peptide used as tracer in the FP assays; also called fluorescent tracer) [SM5F, fluorescently tagged mutated Smac peptide (AbuRPFK-Fam)]

>  <pKd>
8.39

$$$$
